Each entry below carries its measured IC50, system: M1-type muscarinic cholinergic receptor (Rattus norvegicus, UniProt P08482).
assay_metric: IC50 (nM)

These recorded examples may help you get a feel for the data.
>>> numeric_value("CCCc1cc(NCCN(CC)CC)nnc1-c1ccccc1")
400
>>> numeric_value("CCc1cc(NCCN2CCOCC2)nnc1-c1ccccc1")
3700
>>> numeric_value("Cc1cc(NCCN2CCOCC2)nnc1-c1ccccc1.O=C(O)C(=O)O.O=C(O)C(=O)O [CM 30316, dioxalate]")
550
>>> numeric_value("CCc1cc(NCCN(CC)CC)nnc1-c1ccccc1")
70

P = CCN(CC)CCNc1cc(C)c(-c2ccccc2)nn1
Q = CCCc1cc(NCCN2CCOCC2)nnc1-c1ccccc1
Could you determine which record has the numerically smaller IC50? Candidates: P and Q Indicate which entry you chose by stating its label.
P

* * *

Biological target: M2-type muscarinic cholinergic receptor (Cavia porcellus, UniProt H0VRN8)
Sequence (H0VRN8 1-466): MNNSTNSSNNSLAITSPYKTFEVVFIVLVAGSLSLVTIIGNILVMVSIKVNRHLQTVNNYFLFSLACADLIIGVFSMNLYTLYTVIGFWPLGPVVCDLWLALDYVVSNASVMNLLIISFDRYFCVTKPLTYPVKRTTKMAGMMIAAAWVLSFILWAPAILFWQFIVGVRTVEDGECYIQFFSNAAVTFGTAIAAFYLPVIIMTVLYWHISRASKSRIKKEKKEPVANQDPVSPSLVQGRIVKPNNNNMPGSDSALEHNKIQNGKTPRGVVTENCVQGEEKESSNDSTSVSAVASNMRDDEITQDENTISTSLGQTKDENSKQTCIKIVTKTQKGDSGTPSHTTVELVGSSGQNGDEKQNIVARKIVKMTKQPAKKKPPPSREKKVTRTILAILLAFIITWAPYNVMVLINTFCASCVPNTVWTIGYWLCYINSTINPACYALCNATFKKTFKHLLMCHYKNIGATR
pIC50: −log10 of the molar value.
assay_metric: pIC50

>>> numeric_value("Cc1cc(NCCN2CCOCC2)nnc1-c1ccccc1.O=C(O)C(=O)O.O=C(O)C(=O)O [CM 30316, dioxalate]")
4.00

1 = CCc1cc(NCCN2CCOCC2)nnc1-c1ccccc1
2 = CCCc1cc(NCCN2CCOCC2)nnc1-c1ccccc1
Look at 1 and 2 . Which one has the lower recorded pIC50 number? Lab note: record the label of whichever item you select.
1
(1: 4.52, 2: 4.74)

* * *

Molecular target: M1-type muscarinic cholinergic receptor (Rattus norvegicus)
Construct: on a homogenate of rat hippocampus; from tissue; host or cells: rat hippocampus homogenate
Sequence (P08482 1-460): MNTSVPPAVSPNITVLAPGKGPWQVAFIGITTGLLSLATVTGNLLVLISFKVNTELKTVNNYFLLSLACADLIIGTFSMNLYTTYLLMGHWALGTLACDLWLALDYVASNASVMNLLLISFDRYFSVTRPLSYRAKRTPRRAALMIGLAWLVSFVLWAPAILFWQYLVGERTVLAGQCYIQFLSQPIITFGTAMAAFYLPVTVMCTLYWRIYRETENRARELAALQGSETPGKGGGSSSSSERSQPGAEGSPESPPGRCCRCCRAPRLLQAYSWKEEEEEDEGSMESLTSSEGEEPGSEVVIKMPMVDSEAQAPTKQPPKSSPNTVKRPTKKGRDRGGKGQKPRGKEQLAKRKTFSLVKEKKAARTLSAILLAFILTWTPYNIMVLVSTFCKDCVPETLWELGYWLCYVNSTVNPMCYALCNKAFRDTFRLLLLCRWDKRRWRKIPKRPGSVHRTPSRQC
Experiment: Affinity for M1-type muscarinic cholinergic receptor: displacement of [3H]-pirenzepine on rat hippocampus homogenate
Format: binding
Details: ratio of IC50 3H-NMS (guinea-pig ileum) to IC50 3H-PZ (rat hippocampus)
assay_metric: r = M2/M1 (ratio of the M2 and M1 IC50 values, selectivity towards the M1 receptor)

Use these answered entries as a reference point.
>>> numeric_value("CCCc1cc(NCCN(CC)CC)nnc1-c1ccccc1")
9
>>> numeric_value("Cc1cc(NCCN2CCOCC2)nnc1-c1ccccc1.O=C(O)C(=O)O.O=C(O)C(=O)O")
182

P = CCc1cc(NCCN2CCOCC2)nnc1-c1ccccc1
Q = CCc1cc(NCCN(CC)CC)nnc1-c1ccccc1
R = CCN(CC)CCNc1cc(C)c(-c2ccccc2)nn1
S = CCCc1cc(NCCN2CCOCC2)nnc1-c1ccccc1
rank_up(items): orders items by reported r = M2/M1 (ratio of the M2 and M1 IC50 values, selectivity towards the M1 receptor) in ascending numerical order. Please list each label once, in the requested order.
P, Q, S, R
(P: 8, Q: 14, S: 30, R: 47)
